Quick list: Remaining rate (%) 60 min per entry.
assay: Plasma stability test, rat plasma; conditions: Rat plasma, 37°C, 60 min
QUANTITY KIND: Remaining rate (%) 60 min

>>> print(df.to_string())
                               given_smiles              quantity_kind  numeric_result
0  C#Cc1c(F)ccc2cc(O)cc(-c3nc4c5c(nc(OCC6(CN7CCC(=C(F)F)CC7)CC6)nc5c3F)N3C[C@H]5CC[C@H](N5)[C@H]3[C@H](C)O4)c12  Remaining rate (%) 60 min           95.69
1  C#Cc1c(F)ccc2cc(O)cc(-c3nc4c5c(nc(OCC6(CN7CCC(=CF)CC7)CC6)nc5c3F)N3C[C@H]5CC[C@H](N5)[C@H]3[C@H](C)O4)c12  Remaining rate (%) 60 min          106.43
2  C#Cc1c(F)ccc2cc(O)cc(-c3nc4c5c(nc(OCC6(CN7CCC(=C(F)F)CC7)CC6)nc5c3F)N3C[C@H]5CC[C@H](N5)[C@H]3CO4)c12  Remaining rate (%) 60 min           88.38

====

assay: Pharmacokinetic determination in mice (IV and PO, plasma, LCMS/MS); format: in vivo, Balb/c mice; details: mouse, in vivo; PO, 30 mg/kg, male Balb/c mice, overnight fasting, plasma; read-out: AUC0-∞

GIVEN SMILES	AUC(0-inf) [ng·h/mL]
[2H]C([2H])([2H])[C@@H]1Oc2nc(-c3cc(N)cc(Cl)c3C(F)(F)F)c(F)c3nc(OCC4(CN5CCC(=NOC)CC5)CC4)nc(c23)N2C[C@H]3CC[C@H](N3)[C@@H]12	476
C#Cc1c(F)ccc2cc(O)cc(-c3nc4c5c(nc(OCC6(CN7CCC(=C(F)F)CC7)CC6)nc5c3F)N3C[C@H]5CC[C@H](N5)[C@H]3[C@H](C)O4)c12	1610
C#Cc1c(F)ccc2cc(O)cc(-c3nc4c5c(nc(OCC6(CN7CCC(=C(F)F)CC7)CC6)nc5c3F)N3C[C@H]5CC[C@H](N5)[C@H]3[C@H](CC)O4)c12	2610
C#Cc1c(F)ccc2cc(O)cc(-c3nc4c5c(nc(OCC6(CN7CCC(=CF)C7)CC6)nc5c3F)N3C[C@H]5CC[C@H](N5)[C@H]3[C@H](C)O4)c12	559
CON=C1CCN(CC2(COc3nc4c5c(nc(-c6cc(N)cc(Cl)c6C(F)(F)F)c(F)c5n3)O[C@@H](C)[C@@H]3[C@@H]5CC[C@H](CN43)N5)CC2)CC1	632
C#Cc1c(F)ccc2cc(O)cc(-c3nc4c5c(nc(OCC6(CN7CCC(=C(F)F)CC7)CC6)nc5c3F)N3C[C@H]5CC[C@H](N5)[C@H]3CO4)c12	2110

====

experiment: Pharmacokinetic determination in rats (IV and PO, plasma, LCMS/MS); assay type: in vivo, SD rats; details: male, SD, rat, in vivo, po, 30 mg/kg
QUANTITY KIND: Cmax (ng/mL)

>>> df
                                   compound  value_units  numeric_result
0  C#Cc1c(F)ccc2cc(O)cc(-c3ncc4c(N5CC6CCC(C5)N6)nc(OC[C@@]56CCCN5C[C@H](F)C6)nc4c3F)c12 [MRTX-1133, reference compound]        ng/mL              11
